- experiment: Pharmacokinetic study in rats, IV and oral gavage, with brain penetration
- Type: in vivo, rat
- condition label: male, Sprague Dawley, plasma; rat, PO 10.0 mg/kg; read-out: Cmax
Recorded Cmax for the following molecules
Reply with just the number (in µM).

>>> test_value("COc1ccc(OC(=O)NC2CCCCCC2)cc1-c1cncc(-c2nnco2)c1")
5.91

Kindly review the next molecule as well.
Entry O=C(NC1CCCCC1)Oc1ccc(O)c(-c2cncc(-c3nnco3)c2)c1 , Cmax reported as 5.05

====

Recorded IC50 for the following molecules
- study target: human recombinant FAAH (Homo sapiens (Human))
- Sequence (O00519 whole entry): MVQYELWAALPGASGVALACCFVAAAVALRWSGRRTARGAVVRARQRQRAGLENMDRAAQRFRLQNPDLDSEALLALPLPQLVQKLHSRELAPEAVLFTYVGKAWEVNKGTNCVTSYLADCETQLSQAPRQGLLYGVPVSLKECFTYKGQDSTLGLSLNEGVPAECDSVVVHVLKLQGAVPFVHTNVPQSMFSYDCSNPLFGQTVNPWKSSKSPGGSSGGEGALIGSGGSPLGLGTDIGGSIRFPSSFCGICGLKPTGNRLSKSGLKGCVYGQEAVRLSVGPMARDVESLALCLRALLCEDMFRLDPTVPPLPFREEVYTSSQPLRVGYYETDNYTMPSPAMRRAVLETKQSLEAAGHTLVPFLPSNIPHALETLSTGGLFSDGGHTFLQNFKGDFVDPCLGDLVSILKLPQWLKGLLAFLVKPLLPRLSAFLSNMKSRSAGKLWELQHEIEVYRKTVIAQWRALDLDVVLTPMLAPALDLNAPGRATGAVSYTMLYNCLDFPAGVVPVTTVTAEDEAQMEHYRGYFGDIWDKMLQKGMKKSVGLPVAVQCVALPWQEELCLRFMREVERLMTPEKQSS
- experiment: In vitro inhibition of FAAH activity (fluorescent inhibitor screening kit, AMC arachidonoyl amide)
- Format: biochemical
- condition label: human recombinant FAAH; read-out: Inhibition on FAAH activity (IC50)

Field: example entries. Status: answers known.
>>> test_value("CCCCCCCNC(=O)Oc1cccc(-c2cncc(-c3ncco3)c2)c1 [Example 72]")
"1 to 10 nM"
>>> test_value("CCCCCCCCNC(=O)Oc1cccc(-c2cncc(-c3ccco3)c2)c1 [Example 47]")
"1 to 10 nM"
>>> test_value("O=C(NCC1CCCCC1)Oc1cccc(-c2cncc(-c3nccs3)c2)c1 [Example 116]")
"10 to 100 nM"
>>> test_value("O=C(Oc1cccc(-c2cncc(-c3nnco3)c2)c1)N1CCOCC1 [Example 151]")
"1000 to 10000 nM"
>>> test_value("N#Cc1cncc(-c2cccc(OC(=O)NC3CCCCC3)c2)c1 [Example 28]")
"100 to 1000 nM"

Entry O=Cc1cncc(-c2cccc(OC(=O)NC3CCCCCC3)c2)c1 [Example 20] , IC50 reported as 100 to 1000 nM

Entry COc1ccc(OC(=O)NCC2CCCCC2)cc1-c1cncc(-c2nccs2)c1 [Example 122] , IC50 reported as 100 to 1000 nM

Entry O=C(Oc1cccc(-c2cncc(-c3nnco3)c2)c1)N1CCC2(CC1)COC2 [Example 153] , IC50 reported as 1000 to 10000 nM

Entry O=C(NC1CCCCC1)Oc1cccc(-c2cncc(-c3cccs3)c2)c1 [Example 63] , IC50 reported as 10 to 100 nM

Entry CCCCCCCCNC(=O)Oc1cccc(-c2cncc(C(=O)NN)c2)c1 [Example 25] , IC50 reported as > 1000 nM

Entry O=C(NC1CCCCC1)Oc1cccc(-c2cncc(-c3ccco3)c2)c1 [Example 51] , IC50 reported as 76.1 nM

Entry COc1cc(OC(=O)NCc2ccccc2)cc(-c2cncc(-c3nnco3)c2)c1 [Example 176] , IC50 reported as > 1000 nM

Entry O=C(NCc1ccccc1)Oc1cc(O)cc(-c2cncc(-c3nnco3)c2)c1 [Example 162] , IC50 reported as ~100 nM

Entry O=C(NCC1CCCCC1)Oc1cccc(-c2cncc(-c3nncs3)c2)c1 [Example 208] , IC50 reported as 10 to 100 nM

Entry COc1ccc(OC(=O)NCc2ccccc2)cc1-c1cncc(-c2ccc[nH]2)c1 [Example 43] , IC50 reported as > 1000 nM

Entry O=C(NC1CCCCC1)Oc1ccc(OC(F)(F)F)c(-c2cncc(-c3ncco3)c2)c1 [Example 89] , IC50 reported as 100 to 1000 nM

Entry CN(C)c1ccc(OC(=O)NC2CCCCC2)cc1-c1cncc(-c2nnco2)c1 [Example 184] , IC50 reported as > 1000 nM

Entry O=C(NC1CCCCC1)Oc1cc(F)cc(-c2cncc(-c3nnco3)c2)c1 [Example 197] , IC50 reported as 100 to 1000 nM

The measurements presented in this section are drawn from patent US20250129027A1.
